test: Solubility test; assay type: physicochemical; conditions: aqueous buffer, kinetic from dmso stock, Japanese Pharmacopoeia dissolution test second solution (pH 6.8), room temperature, quantification range 5 to 100 μM
Property: solubility at 5 h (µM)
Quick reminder: number only, in µM, skip the unit.

IN: Given the compound C[C@](O)(c1cc(Cl)c(NC(=O)NCc2ccc(Cl)cn2)c(Cl)c1)C(F)(F)F [compound I] , what is its reported solubility at 5 h?
OUT: 98

----------
target: Human KCNQ2/3 (Homo sapiens, UniProt O43525+O43526); construct: expressed in transfected cells; host or cells: CHO-DHFR- cells; assay: Opening action with respect to KCNQ2/3 channel by depolarization stimulation (thallium influx, FLIPR); type: cell-based; conditions: human KCNQ2/3 expressing CHO-DHFR- cells; concentration giving 50% of maximum reaction of retigabine (10 μM); 5 mM potassium and 0.5 mM thallium; read-out: opening action (ECrtg50 value) with respect to the KCNQ2/3 channel
Sequence (O43526 whole entry): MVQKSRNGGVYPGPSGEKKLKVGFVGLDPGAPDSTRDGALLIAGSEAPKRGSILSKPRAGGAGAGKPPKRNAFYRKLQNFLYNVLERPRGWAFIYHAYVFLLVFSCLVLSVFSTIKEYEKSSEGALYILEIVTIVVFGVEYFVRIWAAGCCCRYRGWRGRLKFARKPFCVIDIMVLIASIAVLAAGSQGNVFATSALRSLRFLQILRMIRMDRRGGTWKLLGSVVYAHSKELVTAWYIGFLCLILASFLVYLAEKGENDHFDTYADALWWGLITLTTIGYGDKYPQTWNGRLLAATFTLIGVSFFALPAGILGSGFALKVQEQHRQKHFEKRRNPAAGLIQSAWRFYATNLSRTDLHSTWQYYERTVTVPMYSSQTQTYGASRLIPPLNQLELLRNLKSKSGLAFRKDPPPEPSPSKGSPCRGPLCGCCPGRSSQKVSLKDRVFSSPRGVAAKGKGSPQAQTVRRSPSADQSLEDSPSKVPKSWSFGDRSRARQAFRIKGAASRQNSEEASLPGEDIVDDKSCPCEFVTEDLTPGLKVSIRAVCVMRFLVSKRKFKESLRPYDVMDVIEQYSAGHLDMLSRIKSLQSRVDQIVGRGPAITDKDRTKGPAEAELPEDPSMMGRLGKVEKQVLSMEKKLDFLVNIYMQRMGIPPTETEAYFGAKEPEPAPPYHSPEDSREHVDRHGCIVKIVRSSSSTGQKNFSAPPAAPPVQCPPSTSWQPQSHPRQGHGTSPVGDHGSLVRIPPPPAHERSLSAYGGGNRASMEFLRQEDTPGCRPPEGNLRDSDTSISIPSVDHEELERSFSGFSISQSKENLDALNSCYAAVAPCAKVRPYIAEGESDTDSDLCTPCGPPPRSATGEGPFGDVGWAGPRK
Sequence (O43525 whole entry): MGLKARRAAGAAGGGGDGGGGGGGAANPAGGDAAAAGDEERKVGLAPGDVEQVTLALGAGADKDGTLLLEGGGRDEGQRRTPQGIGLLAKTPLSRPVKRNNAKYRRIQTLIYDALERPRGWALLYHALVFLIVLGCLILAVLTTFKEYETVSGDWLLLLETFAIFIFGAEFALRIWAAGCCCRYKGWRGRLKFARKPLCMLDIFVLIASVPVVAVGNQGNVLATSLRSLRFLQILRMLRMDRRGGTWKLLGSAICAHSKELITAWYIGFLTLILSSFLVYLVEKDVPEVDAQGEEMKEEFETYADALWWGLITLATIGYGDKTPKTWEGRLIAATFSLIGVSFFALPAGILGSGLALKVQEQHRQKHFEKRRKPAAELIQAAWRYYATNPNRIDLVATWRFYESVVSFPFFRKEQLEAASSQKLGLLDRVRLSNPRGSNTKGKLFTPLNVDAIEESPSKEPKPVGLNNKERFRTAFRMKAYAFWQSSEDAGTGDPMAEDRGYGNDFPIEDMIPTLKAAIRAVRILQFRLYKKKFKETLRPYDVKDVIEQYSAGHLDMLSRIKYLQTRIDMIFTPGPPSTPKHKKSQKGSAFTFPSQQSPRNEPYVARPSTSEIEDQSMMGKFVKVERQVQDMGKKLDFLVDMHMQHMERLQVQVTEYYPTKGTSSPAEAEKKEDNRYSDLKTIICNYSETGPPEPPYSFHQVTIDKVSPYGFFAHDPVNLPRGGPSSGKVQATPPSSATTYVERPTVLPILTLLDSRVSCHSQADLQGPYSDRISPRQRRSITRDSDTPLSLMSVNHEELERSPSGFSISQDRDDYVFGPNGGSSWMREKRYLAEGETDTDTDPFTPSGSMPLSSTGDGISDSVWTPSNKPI
Property: EC50 (µM)

A = O=C(Cc1ccc(F)cc1)Nc1c(Cl)cc(Cl)cc1Br [Comparative Example 2, reference compound]
B = C[C@](O)(c1cc(Cl)c(NC(=O)NCc2ccc(Cl)cn2)c(Cl)c1)C(F)(F)F
IN: Hi team, can someone confirm which has the larger EC50: A or B ? Thanks. Return value: the label identifying the chosen record.
OUT: B
(B: 0.6 µM, A: 0.2 µM)

----------
biological target: hERG channel (Homo sapiens, UniProt Q12809); test: Evaluation of action on hERG IKr current (patch-clamp); settings: HEK293 cells overexpressing hERG, maximum tail current, 10 minutes after application, read-out: 50% hERG channel inhibitory activity
Sequence (Q12809 whole entry): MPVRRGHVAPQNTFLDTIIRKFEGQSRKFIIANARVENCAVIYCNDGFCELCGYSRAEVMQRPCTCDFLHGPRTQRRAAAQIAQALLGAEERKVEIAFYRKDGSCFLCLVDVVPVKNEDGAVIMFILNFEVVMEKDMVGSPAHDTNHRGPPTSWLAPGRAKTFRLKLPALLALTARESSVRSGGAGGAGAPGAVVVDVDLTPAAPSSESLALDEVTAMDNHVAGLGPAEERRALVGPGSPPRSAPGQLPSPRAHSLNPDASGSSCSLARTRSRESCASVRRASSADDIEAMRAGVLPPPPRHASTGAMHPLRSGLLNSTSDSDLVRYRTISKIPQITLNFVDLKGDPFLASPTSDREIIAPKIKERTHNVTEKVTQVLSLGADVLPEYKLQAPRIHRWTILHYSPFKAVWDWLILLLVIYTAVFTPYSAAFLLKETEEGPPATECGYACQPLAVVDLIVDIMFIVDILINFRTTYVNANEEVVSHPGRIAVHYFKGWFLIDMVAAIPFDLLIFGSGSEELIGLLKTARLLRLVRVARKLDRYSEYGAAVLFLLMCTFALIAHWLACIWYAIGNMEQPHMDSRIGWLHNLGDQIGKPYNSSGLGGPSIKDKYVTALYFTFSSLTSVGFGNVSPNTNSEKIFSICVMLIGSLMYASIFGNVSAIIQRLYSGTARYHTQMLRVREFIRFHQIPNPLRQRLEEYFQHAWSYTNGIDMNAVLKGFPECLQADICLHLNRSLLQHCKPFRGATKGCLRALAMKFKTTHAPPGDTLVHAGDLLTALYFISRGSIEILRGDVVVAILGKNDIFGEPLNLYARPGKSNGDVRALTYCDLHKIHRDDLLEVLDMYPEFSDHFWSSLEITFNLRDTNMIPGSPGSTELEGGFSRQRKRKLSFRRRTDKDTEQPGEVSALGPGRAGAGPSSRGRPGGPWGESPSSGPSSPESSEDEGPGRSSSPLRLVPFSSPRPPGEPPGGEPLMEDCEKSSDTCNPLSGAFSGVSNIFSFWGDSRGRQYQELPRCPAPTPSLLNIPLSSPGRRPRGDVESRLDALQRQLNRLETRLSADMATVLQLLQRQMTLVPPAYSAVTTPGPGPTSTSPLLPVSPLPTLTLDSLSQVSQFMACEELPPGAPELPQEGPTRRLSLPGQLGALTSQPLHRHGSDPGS
pIC50: −log10 of the molar value.
Property: pIC50

IN: Given the molecule C[C@](O)(c1cc(Cl)c(NC(=O)NCc2ccc(Cl)cn2)c(Cl)c1)C(F)(F)F , what is its reported pIC50?
OUT: < 5.00
